- Tested on: 349418-098-R-PDC complex spheroid viability;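 further: spheroids exposed to agents for seven days before readout; 100% = DMSO vehicle control wells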
- test: Anticancer human tumor 349418-098-R-PDC patient-derived lung adenocarcinoma cell line growth inhibition
- conditionNotes: second compound 1 µM; first compound 0.00316 µM; hits give low values
attributeMeasured: viability, T/C

• Nc1ncn(C2CC(O)C(CO)O2)c(=O)n1 (centres undefined) + NC1CCC(NC2CC2c2ccccc2)CC1 = 89.5%
• Cn1ncnc1C1c2n[nH]c(=O)c3cc(F)cc(c23)NC1c1ccc(F)cc1 (centres undefined) + NC1CCC(NC2CC2c2ccccc2)CC1 = 96.8%
• CC(C)CC(NC(=O)C(Cc1ccccc1)NC(=O)c1cnccn1)B(O)O (centres undefined) + NC1CC1c1ccc(-c2cccc(O)c2)cc1 = 0.72%
• CC(C)CC(NC(=O)CNC(=O)c1cc(Cl)ccc1Cl)B1OC(=O)CC(CC(=O)O)(C(=O)O)O1 (centres undefined) + NC1CC1c1ccc(-c2cccc(O)c2)cc1 = 5.1%

All values here come from PubChem BioAssay AID1918936.
